Tested on: P. falciparum parasite
method.description: In vitro P. falciparum parasite growth (FACS, hydroethidine)
Format: cell-based, Plasmodium falciparum
assay.setup: Plasmodium falciparum; in vitro parasite growth, 48 h; read-out: P. falciparum EC50
pEC50: −log10 of the molar value.
measurement.type: pEC50

CC(C)CCNc1ncc(-c2cnc3ccc(NC4CCN(C)CC4)nn23)cn1
6.33
COC(=O)Nc1cccc(-c2cnc3ccc(NC4CCN(C)CC4)nn23)c1
6.12
CC(C)CCNc1ccc(-c2cnc3ccc(NC4CCN(C)CC4)nn23)cn1
6.40
CC(C)CCNc1ccc(-c2cnc3ccc(N4CCC(N(C)C)CC4)nn23)cn1
6.24
